Target: Yer184c (UniProt P39961)
Sequence: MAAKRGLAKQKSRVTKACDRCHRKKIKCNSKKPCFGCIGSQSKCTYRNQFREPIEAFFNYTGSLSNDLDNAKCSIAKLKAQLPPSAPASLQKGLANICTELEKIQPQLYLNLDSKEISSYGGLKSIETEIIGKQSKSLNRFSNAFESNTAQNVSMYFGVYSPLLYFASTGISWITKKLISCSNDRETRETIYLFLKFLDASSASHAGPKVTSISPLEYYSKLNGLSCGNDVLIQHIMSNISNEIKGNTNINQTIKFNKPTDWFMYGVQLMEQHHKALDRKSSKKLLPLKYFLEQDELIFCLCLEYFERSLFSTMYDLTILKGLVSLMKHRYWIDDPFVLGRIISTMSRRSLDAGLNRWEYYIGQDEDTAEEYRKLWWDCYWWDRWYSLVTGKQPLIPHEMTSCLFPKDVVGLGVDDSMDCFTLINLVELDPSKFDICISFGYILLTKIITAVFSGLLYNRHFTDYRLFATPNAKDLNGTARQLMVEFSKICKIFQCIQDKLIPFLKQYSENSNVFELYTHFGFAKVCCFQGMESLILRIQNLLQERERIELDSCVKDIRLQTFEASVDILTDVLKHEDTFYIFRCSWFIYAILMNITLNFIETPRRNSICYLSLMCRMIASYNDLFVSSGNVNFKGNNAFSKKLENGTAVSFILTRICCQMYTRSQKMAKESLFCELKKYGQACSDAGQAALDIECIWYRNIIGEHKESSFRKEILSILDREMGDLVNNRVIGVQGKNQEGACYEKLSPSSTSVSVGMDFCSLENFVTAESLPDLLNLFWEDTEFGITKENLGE
Experiment: PBM E-score (8-mer binding enrichment) (E-score (-0.5 to 0.5)); higher = stronger / more preferred TF binding
Details: protein concentration: 100 nM; construct: GST-full length
Whole data set: some 33,000 sequences, median “E-score (-0.5 to 0.5)” near -0.016, cut for the highest 2% near 0.3. This excerpt belongs to a sample that is enriched for the highest values.
Endpoint label: PBM E-score

- ACCCCGGA: 0.142
- TAAAATTA: 0.341
- AGAAATTC: 0.077
- GGAAATTA: 0.201
- GCCCGGAA: 0.359
- GCCAACAC: 0.0745
- GCCCGGAC: 0.192
- ACCCGGTA: 0.183
- TCCCCGGA: 0.224
- CAAATTTA: 0.119
- AAAAATTA: 0.253

====

Known PBM E-score of a selection of sequences
Target: Yer184c (UniProt P39961)
Sequence: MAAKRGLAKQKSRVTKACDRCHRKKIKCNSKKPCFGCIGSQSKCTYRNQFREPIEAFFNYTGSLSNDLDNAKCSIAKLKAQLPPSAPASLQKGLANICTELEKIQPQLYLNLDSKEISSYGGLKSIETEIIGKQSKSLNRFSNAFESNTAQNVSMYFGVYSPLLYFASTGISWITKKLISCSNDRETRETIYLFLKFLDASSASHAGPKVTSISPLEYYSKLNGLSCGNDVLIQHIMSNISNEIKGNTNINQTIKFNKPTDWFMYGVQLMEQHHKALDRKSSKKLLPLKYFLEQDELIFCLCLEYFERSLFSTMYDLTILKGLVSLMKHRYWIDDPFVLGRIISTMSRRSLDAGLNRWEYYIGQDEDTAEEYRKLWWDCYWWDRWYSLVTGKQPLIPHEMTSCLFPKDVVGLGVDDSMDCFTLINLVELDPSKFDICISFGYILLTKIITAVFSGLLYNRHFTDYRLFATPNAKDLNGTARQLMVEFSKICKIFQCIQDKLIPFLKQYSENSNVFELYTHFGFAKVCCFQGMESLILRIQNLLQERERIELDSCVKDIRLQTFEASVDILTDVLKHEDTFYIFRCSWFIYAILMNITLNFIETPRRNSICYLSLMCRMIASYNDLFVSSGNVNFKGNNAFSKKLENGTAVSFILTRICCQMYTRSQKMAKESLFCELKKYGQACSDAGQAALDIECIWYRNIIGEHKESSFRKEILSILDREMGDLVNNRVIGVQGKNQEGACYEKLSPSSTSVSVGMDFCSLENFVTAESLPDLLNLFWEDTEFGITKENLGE
Experiment: PBM E-score (8-mer binding enrichment) (E-score (-0.5 to 0.5)); higher = stronger / more preferred TF binding
Conditions: protein concentration: 100 nM; construct: GST-full length
The full ranking holds about 33,000 sequences; the median of “E-score (-0.5 to 0.5)” is about -0.016, and the highest 2% start at about 0.3. This is one part of a sample in which the highest values are shown more often than they occur.
Endpoint label: PBM E-score

• ATCCCCGG = 0.185
• GCGAAATA = 0.206
• ACGAAAGC = 0.0461
• ACCCCGGC = 0.0581
• CACCCGGC = 0.15
• GTGCACAA = -0.028
• CATGCCAG = -0.161
• CCGAAAAG = 0.31
• ACCCGCGT = -0.0424
• CATGTGAA = -0.0476
• CCCATGAC = -0.117
• AATATATT = 0.38
• TATATACA = 0.164
• CACCCCGC = 0.0453
• AATATATA = 0.267
• TATATATA = 0.424
• ATCCGCGG = 0.359
• AGTCTTCA = -0.0522
• AATATATG = 0.153
• TATGCCGA = 0.28
• AATGCCCG = -0.121
• GATATATA = 0.349
• CCGAAAAA = 0.371
• ATTCTTTA = 0.0489
• ATCCGCGA = 0.105
• CATGCCTA = -0.261
• AAACCCGC = 0.135
• ACCCGCGA = -0.0511
• TCGAGAAA = 0.0245
• AACCGCGG = 0.372
• CCGAAAAC = 0.243
• GACAGAGC = -0.128
• ATCCCGGA = 0.274
• AATGCCTG = -0.123
• AATAGTGT = 0.267
• CATGCCGC = 0.181
• CGATAAAG = -0.00214
• ACAACCTA = -0.00165
• AATGCCGA = 0.378
• CGGATACG = 0.247
• AACCGCGT = 0.168
• GCGAGAAA = -0.0014
• CCGAAATA = 0.34
• GGTTACAA = 0.23
• CATCGAAG = -0.0421
• AGCCGCGC = 0.103

====

Parameter: PBM E-score. Scope: all listed entries.
Target: Yer184c (UniProt P39961)
Sequence: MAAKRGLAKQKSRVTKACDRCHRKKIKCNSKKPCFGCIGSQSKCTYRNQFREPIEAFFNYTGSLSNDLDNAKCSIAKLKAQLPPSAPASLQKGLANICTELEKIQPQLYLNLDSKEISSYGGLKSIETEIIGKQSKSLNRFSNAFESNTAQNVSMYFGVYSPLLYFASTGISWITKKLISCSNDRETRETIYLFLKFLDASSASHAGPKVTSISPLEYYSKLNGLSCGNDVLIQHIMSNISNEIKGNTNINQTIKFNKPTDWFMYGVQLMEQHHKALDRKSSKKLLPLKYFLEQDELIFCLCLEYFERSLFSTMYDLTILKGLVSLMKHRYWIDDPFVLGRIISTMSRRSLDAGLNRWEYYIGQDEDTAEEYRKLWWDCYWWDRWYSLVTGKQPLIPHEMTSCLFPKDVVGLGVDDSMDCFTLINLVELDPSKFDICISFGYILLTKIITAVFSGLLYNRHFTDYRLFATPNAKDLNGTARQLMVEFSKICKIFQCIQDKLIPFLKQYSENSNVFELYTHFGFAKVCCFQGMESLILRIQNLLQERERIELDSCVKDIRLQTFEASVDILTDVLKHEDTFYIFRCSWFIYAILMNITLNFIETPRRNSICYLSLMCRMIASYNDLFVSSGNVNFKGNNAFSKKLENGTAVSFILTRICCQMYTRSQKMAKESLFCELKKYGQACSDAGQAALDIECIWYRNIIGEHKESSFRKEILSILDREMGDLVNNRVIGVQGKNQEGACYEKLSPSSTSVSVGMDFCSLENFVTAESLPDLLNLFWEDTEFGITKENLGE
Test: PBM E-score (8-mer binding enrichment) (E-score (-0.5 to 0.5)); higher = stronger / more preferred TF binding
Settings: protein concentration: 100 nM; construct: GST-full length
The full ranking holds about 33,000 sequences; the median of “E-score (-0.5 to 0.5)” is about -0.016, and the highest 2% start at about 0.3. This is one part of a sample in which the highest values are shown more often than they occur.
Endpoint label: PBM E-score

* ATTCTGCC | 0.201
* GCGCCGAC | 0.206
* ATATTTAC | 0.202
* ACGCCGAC | 0.198
* AACCGGGT | 0.202
